viability at 24 h, 0.01 µM values for the compounds below.
- protocol: Cytotoxicity against African green monkey Vero E6 cells assessed as cell viability at 0.01 uM after 24 hrs by MTT assay relative to control
- Format: cell-based
- run.conditions: chlorocebus sabaeus, read-out: Activity
// note: answer is a bare numeric in %

Before answering, review these 3 worked examples.
Cc1ccccc1NC(=O)NC(=O)CSc1nc2ccccc2nc1C 96.8
Cc1nc2ccccc2nc1SCC(=O)NC(=O)Nc1ccccc1Cl 101
Cc1nc2ccccc2nc1SCC(=O)NC(=O)Nc1cccc(F)c1C 102

Turning now to a further record.
Q: viability at 24 h, 0.01 µM lookup needed for Cc1ccc(NC(=O)NC(=O)CSc2nc3ccccc3nc2C)cc1 , thanks.
Result: 98.4

* * *

- assay.target: Matrix protein VP40 (Lake Victoria marburgvirus (strain Ravn-87) (MARV) (Marburg virus (strainKenya/Ravn/1987)))
- protocol: Inhibition of Marburg virus VP40 PPxY L-domain motif expressed in HEK293T cells assessed as reduction in VLP budding at 1 uM relative to control
- Format: cell-based
- run.conditions: HEK-293T
Active and inactive are the calls of the source. The calls are words filed in the database; no cut-off is given here.
assay.readout: inhibition

// solved cases for inhibition follow
Cc1nc2ccccc2nc1SCC(=O)NC(=O)Nc1cccc(C#N)c1 72%
Cc1nc2ccccc2nc1SCC(=O)NC(=O)NCc1cccs1 97%
Cc1nc2ccccc2nc1S(=O)(=O)CC(=O)NC(=O)Nc1ccc(F)cc1 inactive
Cc1nc2ccccc2nc1SCC(=O)NC(=O)Nc1c(C)nn(C)c1C 64%
Cc1ccccc1NC(=O)NC(=O)CSc1nc2ccccc2nc1C 100%

Q: # input compound: COc1ccc(NC(=O)NC(=O)CSc2nc3ccccc3nc2C)cc1 ; wanted: its inhibition
Result: 100%

Q: Would you kindly share the measured inhibition for O=C(CSc1nc2ccccc2nc1C(F)(F)F)NC(=O)Nc1ccccc1Cl ?
Result: inactive

Q: Request the reported inhibition associated with Cc1nc2ccccc2nc1SCC(=O)NC(=O)Nc1ccccn1
Result: 80%

* * *

- System: Liver microsome
- protocol: Half life in human liver microsomes
- Format: ADME
assay.readout: t1/2 (h)
Report as a plain number; the unit h is understood.

// below: answered molecules
O=C(CSc1nc2ccccc2nc1C(F)(F)F)NC(=O)Nc1ccccc1Cl 1.2
Cc1ccc(NC(=O)NC(=O)CSc2nc3ccccc3nc2C)cc1 0.962
Cc1ccccc1NC(=O)NC(=O)CSc1nc2ccccc2nc1C 0.777

Now let's try a different one.
Q: Please give the measured t1/2 for this molecule: CCc1nc2ccccc2nc1SCC(=O)NC(=O)Nc1cccc(F)c1C
Result: 0.522

* * *

The compounds listed here are annotated with their inhibition.
- assay.target: Matrix protein VP40 (Lake Victoria marburgvirus (strain Ravn-87) (MARV) (Marburg virus (strainKenya/Ravn/1987))) (UniProt Q1PDC8)
- Sequence (whole entry): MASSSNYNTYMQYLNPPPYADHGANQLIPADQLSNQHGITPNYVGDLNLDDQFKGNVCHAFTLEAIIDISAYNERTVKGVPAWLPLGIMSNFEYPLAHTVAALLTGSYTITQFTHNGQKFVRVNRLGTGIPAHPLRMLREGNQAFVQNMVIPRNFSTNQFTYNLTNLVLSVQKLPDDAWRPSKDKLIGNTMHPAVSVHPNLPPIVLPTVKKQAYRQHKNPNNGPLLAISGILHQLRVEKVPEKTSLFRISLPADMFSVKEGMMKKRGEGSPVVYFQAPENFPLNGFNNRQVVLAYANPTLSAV
- protocol: Inhibition of Marburg virus VP40 PPxY L-domain motif expressed in HEK293T cells assessed as reduction in VLP budding at 0.3 uM relative to control
- Assay type: cell-based
- run.conditions: HEK-293T

Cc1nc2ccccc2nc1SCC(=O)NC(=O)Nc1ccccc1F 100%
Cc1cccc(NC(=O)NC(=O)CSc2nc3ccccc3nc2C)c1 71%

Q: // query inhibition value for entry Cc1cc(C)cc(NC(=O)NC(=O)CSc2nc3ccccc3nc2C)c1
Result: 100%

Q: Fill in the blank: the reported inhibition of Cc1cccc(NC(=O)NC(=O)CSc2nc3ccccc3nc2C)c1C is ____.
Result: 98%
